- System: SF-295
- MEASUREMENT_DESCRIPTION: NCI tumour cell line growth inhibition, 48 h
Calls of active or inactive are those of the source. No stated cut-off is given here; in the data, active = GI50 up to about 1.1 µM and inactive = higher.
REPORTED_PROPERTY: GI50

Measured GI50, `C/C(=N/N)c1ccc2[nH]c3c(C)cc([N+](=O)[O-])c(C)c3c2c1` : 17.1 µM (inactive)

GI50 reported for this compound `O=C(O)c1cc(C(=O)O)cc(N2C(=O)c3ccccc3C2=O)c1` : > 100 µM (inactive)

Measured GI50 of O=C1c2ccccc2CC1C1(O)C(=O)Nc2ccccc21 (stereo not given) : > 100 µM (inactive)

The reported value for C=C(C)C1Cc2c(cc(O)c3c(=O)c4c(oc23)C(O)Oc2cc(OC)c(OC)cc2-4)O1 (stereo not given) in terms of GI50 is > 10 µM (inactive)

---

- System: BT-549
- MEASUREMENT_DESCRIPTION: NCI tumour cell line growth inhibition, 48 h
Activity calls are given as the source filed them. Rule as the data show it: active = GI50 up to about 1.1 µM and inactive = higher.
Thanks in advance; please answer with one of these: YES for active, NO for inactive

[[record]]
compound = "N=C(N)SCc1ccc(Cl)c2ccccc12.O=[N+]([O-])c1ccc(O)c([N+](=O)[O-])c1"
study_target = "BT-549"
qualitative_label = "NO"


Which outcome did this test record for the compound `O=C(CCCN1CCC2(CC1)CC(=O)N(N1CCOCC1)C2=O)c1ccc(F)cc1` ?
NO

# fetch the recorded call for COc1ccc2c(c1)CCC1=C/C(=N\NC(N)=O)CCC12C (stereo unspecified) here
NO

Answer briefly: the call reported for CC(SC(=S)N(C)C)C(=O)Nc1nnc(-c2ccc(Cl)cc2)o1 (stereo unspecified) in this assay.
NO

Hi, do you know how `Cc1[nH]c2[nH]c(=S)nc(NC(N)=S)c2c1Cc1ccccc1` came out in this test?
NO

Outcome logged for `COc1cc(/C=N/N=C2NCCN2)ccc1O` in this assay:
NO

Recorded test outcome, item `COc1cccc(/N=N/C(=N/NC(=O)c2cc(Cl)ccc2O)c2ccc(N(CCC#N)CCC#N)cc2C)c1`
NO

Any idea what this test logged for `COc1cc(/C=N/c2ccc(S(N)(=O)=O)cc2)cc(OC)c1` ?
NO

Give the logged outcome of this assay for the following compound: `COc1cc2c(cc1OCCCCOc1cc3nc(C)nc(Cl)c3cc1OC)N=C[C@@H]1CCCN1C2=O`
NO

---

- Tested on: K562
- MEASUREMENT_DESCRIPTION: NCI tumour cell line growth inhibition, 48 h
Calls of active or inactive are those of the source. Rule as the data show it: active = GI50 up to about 1.1 µM and inactive = higher.
The entries below are paired with their reported GI50.

Data point: `COC1=CC(=O)c2c(CCNC(=O)OCc3ccccc3)n[nH]c2C1=O` ; GI50 = 16 µM (inactive)

So for CC1(O)C(C)(O)C2(C)O[Te]3(OC12C)OC1(C)C(C)(O)C(C)(O)C1(C)O3 (stereo not given) , the logged GI50 turned out to be 9.79 µM (inactive)

Recorded GI50 (molecule `COc1ccc(Nc2n[nH]c(NS(=O)(=O)c3cc(C)c(Cl)cc3S)n2)cc1` ): > 100 µM (inactive)

---

- Test system: SK-MEL-28
- MEASUREMENT_DESCRIPTION: NCI tumour cell line growth inhibition, 48 h
Activity calls are given as the source filed them. Rule as the data show it: active = GI50 up to about 1.1 µM and inactive = higher.
// values below are reported GI50

Look over these answered cases.
[[record]]
compound = "COC(=O)c1nc2n(n1)-c1ccccc1C(=O)N(Cc1ccccc1)C2"
assay_result = "> 100 µM (inactive)"

[[record]]
compound = "Cc1c(C(=O)CC(=O)C(=O)Nc2ccc(Cl)c(Cl)c2)[n+]([O-])c2ccccc2[n+]1[O-]"
assay_result = "37.9 µM (inactive)"

[[record]]
compound = "NC(=O)NC(=O)c1cccc(CNc2ccc(C(=O)N[C@@H](CCC(=O)O)C(=O)O)cc2)n1"
assay_result = "> 100 µM (inactive)"

[[record]]
compound = "O/N=C1\\CC2(N3CCOCC3)CCC1(Cc1ccccc1)CC2"
assay_result = "> 100 µM (inactive)"


The recorded GI50 for entry `N#CC(=S)Nc1cccc(Cl)c1` equals 44.7 µM (inactive)

For record `O=c1[nH]c2ccc([N+](=O)[O-])c(Cl)c2c2ccccc12` the listed GI50 is 11 µM (inactive)

Documented GI50 of `Cc1cccc(NC(=S)Nc2ccc([N+](=O)[O-])cc2)n1` : > 100 µM (inactive)

Sure, the documented GI50 for O=C1OC(C(O)CO)C(O)=C1O (stereo not given) is > 100 µM (inactive)

Lookup result for `CC1=C(C(=O)Nc2cc(=O)n(C)c(=O)n2C)C(c2cccc([N+](=O)[O-])c2)C(C(=O)Nc2cc(=O)n(C)c(=O)n2C)=C(C)N1` ; measured GI50: > 100 µM (inactive)

compound `O=c1c2cc(I)ccc2nc(Sc2ccc([N+](=O)[O-])cc2[N+](=O)[O-])n1Cc1ccccc1` , GI50 observed: 7.14 µM (inactive)

---

- System: NCI/ADR-RES
- MEASUREMENT_DESCRIPTION: NCI tumour cell line growth inhibition, 48 h
Calls of active or inactive are those of the source. Cut-off read from the data, not from the text of the source: active = GI50 up to about 1.1 µM and inactive = higher.
REPORTED_PROPERTY: GI50

[[record]]
structure_notation = "Cc1[nH]c2[nH]c(=S)nc(NC(N)=S)c2c1Cc1ccccc1"
assay_result = "48.8 µM (inactive)"

[[record]]
structure_notation = "O=C1Nc2ccccc2/C1=N/N=C1NCCCCN1"
assay_result = "> 100 µM (inactive)"

[[record]]
structure_notation = "CCOC(=O)[C@@H](Cc1ccc(CCl)cc1)NC(C)=O"
assay_result = "19.9 µM (inactive)"

[[record]]
structure_notation = "c1ccc(CN2CCC(Nc3ccccc3)(c3nnnn3Cc3ccccc3)CC2)cc1"
assay_result = "24.5 µM (inactive)"

[[record]]
structure_notation = "O=C(CCCN1CCC2(CC1)CC(=O)N(N1CCOCC1)C2=O)c1ccc(F)cc1"
assay_result = "> 100 µM (inactive)"


In the following, a different compound is considered.
The compound identified as `COc1cc(NS(C)(=O)=O)ccc1Nc1cc(C)nc2ccc3[nH]ccc3c12` registered its GI50 at > 100 µM (inactive)

---

Consider the following molecules and their measured GI50 readings.
- Test system: MCF7
- MEASUREMENT_DESCRIPTION: NCI tumour cell line growth inhibition, 48 h
The source made the active and inactive calls. Cut-off read from the data, not from the text of the source: active = GI50 up to about 1.1 µM and inactive = higher.

[[record]]
molecule = "CC1=C(C)C(=O)C(C2=CC(=O)C=CC2=O)=C(C2=CC(=O)C=CC2=O)C1=O"
reported_property = "GI50"
assay_result = "26.4 µM (inactive)"


With those in mind, consider the next molecule.
Documented GI50 of `O=C1C(Br)=Cc2c(Cl)sc(Cl)c21` : 2.44 µM (inactive)

---

- System: CCRF-CEM
- MEASUREMENT_DESCRIPTION: NCI tumour cell line growth inhibition, 48 h
Activity calls are given as the source filed them. Rule as the data show it: active = GI50 up to about 1.1 µM and inactive = higher.
Returns: one label drawn from YES = active, NO = inactive

[[record]]
molecule = "O/N=C1/C(=C/c2ccc(Cl)c(Cl)c2)CCCC1C(NO)c1ccc(Cl)c(Cl)c1 (stereo unspecified)"
qualitative_label = "NO"

[[record]]
molecule = "CC1(O)C(C)(O)C2(C)O[Te]3(OC12C)OC1(C)C(C)(O)C(C)(O)C1(C)O3 (stereo unspecified)"
qualitative_label = "NO"

[[record]]
molecule = "COc1cccc(C23CCCC(C2)NCC3Br)c1OC (stereo unspecified)"
qualitative_label = "NO"

[[record]]
molecule = "N=c1oc2ccc(Cl)cc2cc1C(=O)Nc1ccccc1"
qualitative_label = "NO"

[[record]]
molecule = "OCSc1nn(CO)c(=S)s1"
qualitative_label = "NO"


Entry C=C1C(=O)[C@@]23CC[C@@H]4[C@@]5(C)CCC[C@@]4(OC5=O)C2(C)CC[C@]1(OC)C3 (stereo partly specified) : call = ?
YES

---

- Tested on: 786-0
- MEASUREMENT_DESCRIPTION: NCI tumour cell line growth inhibition, 48 h
Calls of active or inactive are those of the source. Rule as the data show it: active = GI50 up to about 1.1 µM and inactive = higher.
REPORTED_PROPERTY: GI50

[[record]]
structure_notation = "Cc1[nH]c2[nH]c(=S)nc(NC(N)=S)c2c1Cc1ccccc1"
reported_property = "GI50"
assay_result = "26.8 µM (inactive)"

[[record]]
structure_notation = "Cc1ccc(C(=O)N/N=C(\\N=N\\c2ccccc2[N+](=O)[O-])c2ccc(N(C)C)cc2)cc1"
reported_property = "GI50"
assay_result = "> 100 µM (inactive)"

[[record]]
structure_notation = "CC(=O)Oc1ccc2c(C)cc(=O)oc2c1"
reported_property = "GI50"
assay_result = "> 100 µM (inactive)"

[[record]]
structure_notation = "CC(C)=CCNc1ncnc2[nH]cnc12"
reported_property = "GI50"
assay_result = "> 100 µM (inactive)"


Turning now to a further record.
Item: `C1=Cc2nc1c(-c1ccccc1)c1ccc([n-]1)c(-c1ccccc1)c1nc(c(-c3ccccc3)c3ccc([n-]3)c2-c2ccccc2)C=C1.[Zn+2]` | System: 786-0 | GI50: > 100 µM (inactive)
